Exercise: for every item that follows, state its recorded composite z-score.
test: small-molecule binders of probe aInhba, primary screen, biochemical, small-molecule microarray, 635/667 nm fluorescence (AID 1148); conditions: higher = more signal;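 further: score merges 667nm spot fluorescence with signal-to-noise for antibody binding to printed compounds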
Answers are plain numbers.

| Molecule | Assay Endpoint | Value Observed |
| --- | --- | --- |
| COCCOC(=O)N1C(=O)[C@@]2(c3cc(C#CCC(C(=O)OC)C(=O)OC)ccc31)[C@H](C(N)=O)[C@H]1C(=O)O[C@H](c3ccccc3)[C@H](c3ccccc3)N1[C@@H]2c1ccccc1OCCO | composite z-score | -0.0259 |
| COc1ccc([Si](C)(C)[C@H]2[C@H](CC(=O)N3CCC[C@H]3CO)O[C@@]3(C(=O)N(Cc4cccc(N5CCCCC5=O)c4)c4ccccc43)[C@@H]2C)cc1 | composite z-score | -0.128 |
| CCCCC(=C=CC[C@@H](O)c1ccccc1OCCO)C[C@@H](O)c1ccccn1 | composite z-score | -0.024 |
| C=C(COC)C(=O)CC[C@H](OC(C)=O)c1ccc(CO)o1 | composite z-score | -0.101 |
| COC(=O)C(CC#Cc1ccc2c(c1)[C@]1(C(=O)N2)[C@H](C(=O)NC[C@H](O)c2ccccc2)[C@H]2C(=O)O[C@H](c3ccccc3)[C@H](c3ccccc3)N2[C@@H]1c1ccc(O)cc1)C(=O)OC | composite z-score | -0.0736 |

Each of the following entries comes with a recorded value; kindly state composite z-score for each.
1. CCCCCN1CC=CC23O[C@@H]4/C=C\CCCOC(=O)C4[C@H]2C(=O)N(CCCCCO)[C@@H]3C1=O (some centres not stated)
2. O=C1N(Cc2ccccc2)Cc2ccccc2C[C@@]12COC(c1ccc(OCCCO)cc1)=N2
3. CCCCN1CC=CC23O[C@@H]4C=CCCOC(=O)C4[C@H]2C(=O)N(CCO)[C@@H]3C1=O (some centres not stated)
4. COC(=O)c1c2oc(c1C(=O)OC)C(=O)N[C@H](Cc1ccccc1)Cn1cc(nn1)C1(CCCCC1)NC(=O)N[C@H](CO)CC2
5. C=CCOC(=O)[C@@H]1[C@H]2C(=O)O[C@H](c3ccccc3)[C@H](c3ccccc3)N2[C@H](c2ccc(OCCOC(=O)[C@@H]3C[C@@H]4C(=O)N[C@@H](CC(C)C)C(=O)N4[C@@H]3c3ccc(O)cc3)cc2)[C@@]12C(=O)Nc1ccc(I)cc12
6. C=C(/C=C\CNS(=O)(=O)c1ccc(C)cc1)[C@H](O)[C@H]1CCCN1S(=O)(=O)c1ccccc1[N+](=O)[O-]

1. -0.128
2. 0.108
3. -0.0405
4. 0.161
5. 1.27
6. -0.0986

For every item below, please supply its composite z-score.
1. CN1C(=O)C2C=CC(C(O)COCc3ccccc3)N(Nc3ccc([N+](=O)[O-])cc3[N+](=O)[O-])C2C1=O (configuration not stated)
2. C=CC[C@]12N=C(c3ccc(OCCCO)cc3)O[C@H]1c1ccccc1N(CCC)C2=O
3. CO[C@H]1O[C@H](CO)[C@@H](OC(=O)Nc2cccc(F)c2)[C@H](OC(=O)c2cc3ccccc3[nH]2)[C@H]1OC(=O)c1cc2ccccc2[nH]1
4. COc1ccc(C(O)C2C=CC3C(=O)N(c4ccccc4)C(=O)C3N2Nc2ccccc2F)c2ccccc12 (configuration not stated)
5. C=CCNC(=O)[C@@H]1[C@H]2C(=O)O[C@H](c3ccccc3)[C@H](c3ccccc3)N2[C@H](c2ccc(OCCO)cc2)[C@@]12C(=O)Nc1ccc(C#CCNC(N)=O)cc12
6. COC(=O)[C@@]1(Cc2ccc(F)cc2)[C@H]2c3cc(C(=O)N4CCCC4)n(CCc4c[nH]c5cc(F)ccc45)c3C[C@H]2CN1C(=O)c1ccccc1

0.0442
0.562
-0.128
1.11
-0.0195
0.0049

# per-item lookup of composite z-score; items listed below
1. CC(C)[Si]1(C(C)C)OCc2cc(-c3ccc(-c4ccc(Cl)c(Cl)c4)o3)nc(-c3ccc(Oc4ccccc4)cc3)c21
2. C=C(COC)C(=O)CC[C@H](OC(C)=O)c1ccccc1OCCO
3. C[C@]1(C(=O)NCC(F)(F)F)c2ccccc2C(=O)N(Cc2cc(C(F)(F)F)cc(C(F)(F)F)c2)[C@H]1c1ccc(CO)cc1
4. COCCCNC(=O)[C@@]1(Cc2ccccc2I)c2ccccc2C(=O)N(Cc2ccccc2C(F)(F)F)[C@H]1c1ccc(CO)cc1
5. CCCCN1CC=CC23O[C@@H]4/C=C\CCC(C)OC(=O)C4[C@H]2C(=O)N(CCO)[C@@H]3C1=O (some centres not stated)
6. COc1c(C)cc(-c2cc3c(c(CCc4ccccc4)n2)[Si](C(C)C)(C(C)C)O[C@H]3c2ccccc2)cc1C
7. [N-]=[N+]=NCc1ccccc1[C@H]1OC(c2ccc(OCCCO)cc2)=N[C@@]1(Cc1ccccc1N=[N+]=[N-])C(=O)O
8. COc1ccc([Si](C)(C)[C@H]2[C@H](CC(=O)N(CCO)Cc3ccccc3)O[C@@]3(C(=O)N(Cc4ccc(N5C(=O)c6cccc7cccc5c67)cc4)c4ccccc43)[C@@H]2C)cc1

[-0.382, 0.858, -0.0963, -0.016, -0.0494, -0.128, 0.147, 0.545]

Parameters: items (list). Returns: composite z-score for each item.
1. CC[C@H]1C2=C3C(CC[C@H]4C(OCc5ccc(F)cc5C(F)(F)F)OC[C@](C)([C@@H]34)N(C(=O)OC(C)(C)C)C2)C(COC(C)=O)C1COC(C)=O (some centres not stated)
2. C=CCOC(=O)[C@H]1[C@@H]2C(=O)O[C@@H](c3ccccc3)[C@@H](c3ccccc3)N2[C@@H](c2ccc(OCCOC(=O)[C@@H]3C[C@@H]4C(=O)N[C@@H](Cc5ccccc5)C(=O)N4[C@@H]3c3ccc(O)cc3)cc2)[C@]12C(=O)Nc1ccc(I)cc12

1. 0.214
2. 0.124
